# assayed.system: T1, FGLVKSK(biotin) peptide (XGLVKSK(biotin), X = Phe)
# T1 construct: also called Nt-Phe peptide
# T1 peptide: FGLVKSK(Biotin)
# protocol.text: BLI, biotinylated peptide on streptavidin biosensor, 10 µmol/L protein
No end group written: not given here. *: point of attachment. Biotin = O=C1N[C@H]2[C@H](CS[C@H]2CCCCC(=O)*)N1
quantity.kind: binding result

- GID4 A252V variant (residues 116-300), purified with N-terminal His-tag (designed binder, not shown: N-terminal six-histidine tag and TEV protease recognition site from the pET21(+) construct) GVATSLLYSGSKFRGHQKSKGNSYDVEVVLQHVDTGNSYLCGYLKIKGLTEEYPTLTTFFEGEIISKKHPFLTRKWDADEDVDRKHWGKFLAFYQYAKSFNSDDFDYEELKNGDYVFMRWKEQFLVPDHTIKDISGVSFAGFYYICFQKSAASIEGYYYHRSSEWYQSLNLTHVPEHSAPIYEFR: binds
- GID4 A252V-S253T double mutant variant (residues 116-300), purified with N-terminal His-tag (designed binder, also called A252V-S253T mutant; not shown: N-terminal six-histidine tag and TEV protease recognition site from the pET21(+) construct) GVATSLLYSGSKFRGHQKSKGNSYDVEVVLQHVDTGNSYLCGYLKIKGLTEEYPTLTTFFEGEIISKKHPFLTRKWDADEDVDRKHWGKFLAFYQYAKSFNSDDFDYEELKNGDYVFMRWKEQFLVPDHTIKDISGVTFAGFYYICFQKSAASIEGYYYHRSSEWYQSLNLTHVPEHSAPIYEFR: binds
